Origin of values: BigSolDB 2.1

Details: in isobutanol, 323.15 K
measured property: solubility (mole fraction)
Keep the answer to the number alone.

Req: Note down solubility (mole fraction) recorded for "c1ccc2[nH]cnc2c1"
Resp: 0.156

* * *

Details: in isopropyl acetate, 298.15 K
measured property: solubility (mole fraction)
Keep the answer to the number alone.

Req: Note down solubility (mole fraction) recorded for "c1ccc2[nH]cnc2c1"
Resp: 0.0113

* * *

Conditions: in ethyl acetate, 318.15 K
measured property: solubility (mole fraction)

Req: Note down solubility (mole fraction) recorded for "c1ccc2[nH]cnc2c1"
Resp: 0.0223

* * *

Conditions: in 2-butanone, 303.15 K
measured property: solubility (mole fraction)
Keep the answer to the number alone.

Req: Note down solubility (mole fraction) recorded for "c1ccc2[nH]cnc2c1"
Resp: 0.0393
